measured attribute: melting point

Recorded melting point, per entry:
| molecule | result value |
| --- | --- |
| COc1c(Cl)nc(-c2ccc(Cl)c(OC)c2F)nc1Cl | 137 to 138 °C |
| CCOC1OC(CO)C(OC2OC(COC(C)=O)C(OC3OC(COC(C)=O)C(OC(C)=O)C(OC(C)=O)C3OC(C)=O)C(OC(C)=O)C2OC(C)=O)C(O)C1NC(C)=O (centres undefined) | 260 to 262 °C |
| N#Cc1cccc(N2CCOCC2)c1 | 105 °C |
| O=C(Nc1cc(Cl)cc(Cl)c1)c1c(O)ccc2ccccc12 | 246 to 248 °C |
| CCCCC(Cc1cc(C(C)(C)C)c(O)c(C(C)(C)C)c1)(C(=O)OC1CC(C)(C)N(OC2CCCCC2)C(C)(C)C1)C(=O)OC1CC(C)(C)N(OC2CCCCC2)C(C)(C)C1 | 184 to 185 °C |

Which melting point value belongs to NC(=O)c1c(I)c(C(=O)N(CC(O)CO)CC(O)CO)c(I)c(N(CC(O)CO)C(=O)CO)c1I (centres undefined) ?
195 to 200 °C

Which melting point value belongs to CCN(CC)CCN=S(=O)(c1ccccc1)c1cccs1 (centres undefined) ?
116 °C

Which melting point value belongs to Nc1cccc(CN2C(=O)C3(COc4cc5c(cc43)OCCO5)c3ccccc32)n1 (centres undefined) ?
240 to 241 °C

Which melting point value belongs to CC(=O)N1C(C)(C)CC(OC(=O)C(Cc2cc(C(C)(C)C)c(O)c(C(C)(C)C)c2)(Cc2cc(C(C)(C)C)c(O)c(C(C)(C)C)c2)C(=O)OC2CC(C)(C)N(C(C)=O)C(C)(C)C2)CC1(C)C ?
202 °C

Which melting point value belongs to CS(=N)(=O)c1ccc(Nc2ncc(Br)c(Cl)n2)cc1 (racemic) ?
170 to 173 °C

Which melting point value belongs to COc1ccc(C(=O)c2ccc(OCc3nc(-c4ccccc4)oc3C)cc2)c(O)c1 ?
156 to 157 °C

Which melting point value belongs to CCn1cc(C(=O)N[C@@H]2C(=O)N[C@@H]2C(=O)OC)c(=O)c2ccc(C)nc21 (relative stereo) ?
223 to 224 °C

Which melting point value belongs to COc1cc2c(cc1-c1cc3c4cc(-c5ccccc5)ccc4n(CCC(C)CCCC(C)C)c3cc1OC)c1cc(-c3ccccc3)ccc1n2CCC(C)CCCC(C)C (centres undefined) ?
155 °C

Which melting point value belongs to COc1cc(OC)c(/C=C/C(c2ccc(OC)c(NS(=O)(=O)C(F)(F)F)c2)S(=O)(=O)C(/C=C/c2c(OC)cc(OC)cc2OC)c2ccc(OC)c(NS(=O)(=O)C(F)(F)F)c2)c(OC)c1 (centres undefined) ?
144 to 146 °C

Which melting point value belongs to CCCCCCCS(=O)(=O)c1cc2c3cc(S(=O)(=O)CCCCCCC)c(S(=O)(=O)CCCCCCC)cc3c3cc(S(=O)(=O)CCCCCCC)c(S(=O)(=O)CCCCCCC)cc3c2cc1S(=O)(=O)CCCCCCC ?
256 to 258 °C

Which melting point value belongs to CCC(CC)Nc1cc(C)nc(Oc2c(C)cc(C)cc2C)c1[N+](=O)[O-] ?
160 to 162 °C

Which melting point value belongs to CC(C)CCCC(C)C1CCC2C3CC=C4CC(N(CCCNC(=O)CCNC(=O)CCNC(=O)CCCCCNc5ccc([N+](=O)[O-])c6nonc56)S(=O)(=O)c5ccccc5[N+](=O)[O-])CCC4(C)C3CCC12C (centres undefined) ?
113 to 114 °C

Which melting point value belongs to Cc1ccc(S(=O)(=O)NNOC(C)C)cc1 ?
112 to 113 °C

Which melting point value belongs to CCCCCCCCCCCCCCCCCCCCCC(=O)OCCN(CCOC(=O)CCCCCCCCCCCCCCCCCCCCC)CC(=O)O ?
73 to 75 °C
